- Target or test system: androgen receptor in MDA-MB453-MMTV clone 54-19 cells (Homo sapiens)
- Sequence (P10275 whole entry Q868H, form open): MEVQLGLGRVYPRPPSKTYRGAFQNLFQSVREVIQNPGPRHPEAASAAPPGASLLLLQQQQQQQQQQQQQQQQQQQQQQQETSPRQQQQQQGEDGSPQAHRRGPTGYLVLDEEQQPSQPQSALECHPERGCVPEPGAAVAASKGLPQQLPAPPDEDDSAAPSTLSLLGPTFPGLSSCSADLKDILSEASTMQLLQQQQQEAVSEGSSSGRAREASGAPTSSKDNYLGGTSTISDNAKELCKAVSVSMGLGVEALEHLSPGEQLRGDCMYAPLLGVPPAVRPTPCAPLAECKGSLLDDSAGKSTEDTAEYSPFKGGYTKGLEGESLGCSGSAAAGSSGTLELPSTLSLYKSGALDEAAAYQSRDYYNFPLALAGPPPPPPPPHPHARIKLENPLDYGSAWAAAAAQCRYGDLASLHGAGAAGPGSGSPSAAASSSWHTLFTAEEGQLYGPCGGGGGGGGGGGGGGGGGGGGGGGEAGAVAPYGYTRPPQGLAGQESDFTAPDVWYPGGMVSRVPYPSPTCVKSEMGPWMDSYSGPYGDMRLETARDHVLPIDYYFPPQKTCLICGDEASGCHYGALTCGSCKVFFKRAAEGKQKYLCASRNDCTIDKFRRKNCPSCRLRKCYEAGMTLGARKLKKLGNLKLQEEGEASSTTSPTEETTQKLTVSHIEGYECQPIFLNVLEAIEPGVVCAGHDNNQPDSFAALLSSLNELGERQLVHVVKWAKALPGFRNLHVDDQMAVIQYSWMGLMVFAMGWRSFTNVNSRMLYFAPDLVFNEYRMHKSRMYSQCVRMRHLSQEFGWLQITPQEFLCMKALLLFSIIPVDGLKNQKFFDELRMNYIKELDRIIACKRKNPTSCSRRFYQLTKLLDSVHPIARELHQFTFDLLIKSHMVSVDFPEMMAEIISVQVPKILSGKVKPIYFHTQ
- Experimental details: AR antagonist cell assay (MMTV-luciferase reporter)
- Assay type: cell-based
- Measurement setup: MDA-MB453-MMTV clone 54-19, inhibition of DHT induced luciferase, 17 hr; mean of multiple tests; read-out: AR Cell IC50
- Description: The compounds ability to antagonize the effects of androgen on the androgen receptor were determined in a whole cell assay as described immediately below. This cell line is a stable transfected cell line with MDA-MB453 cell background (a human breast tumor cell line expressing androgen receptor). A MMTV minimal promoter containing ARE was first cloned in front of a firefly luciferase reporter gene. Then the cascade was cloned into transfection vector pUV120puro. […]
pIC50: −log10 of the molar value.
Readout: pIC50

# annotated cases, reported pIC50 shown
Compound: N#Cc1ccc(Oc2ccccc2-c2ccccc2)cc1Cl [Example 69]
pIC50: < 6.00
--
Compound: Cc1cc(C)c(Oc2ccc(C#N)cc2Cl)c(C)c1 [Example 15]
pIC50: < 6.00

Then this compound:
Recorded pIC50 for N#Cc1ccc(Oc2ccccc2C(N)=O)cc1Cl [Example 8, 2-(3-Chloro-4-cyano-phenoxy)-benzamide] , please?
< 6.00
